Procedure details: growth suppression of yeast trafficking mutant, preliminary HTS, modulators of trafficking downstream of Golgi apparatus project, 1536-format plate, OD 615 nm (AID 637); note: test concentration not given here
Assay conditions: yeast transport mutant growth, absorbance 615 nm, 18 h; active compounds read high
Reported property: inhibition (%)
I only need the number, in %, no unit after it.

Task: Entry `COc1ccc(C2=NO[C@@H]3C(=O)N(c4ccc5c(c4)OCCO5)C(=O)[C@H]23)cc1OC` has what inhibition?
Result: -5.08

Task: Entry under review: `N#Cc1nc(COc2ccc(Br)cc2)oc1N1CCCC1` . Reported inhibition?
Result: 0.66

Task: What measured inhibition goes with COc1cccc(C2C(C#N)=C(N)OC3=C2C(=O)CCC3)c1OC(=O)c1ccco1 (stereo not given) ?
Result: 3.71

Task: // query inhibition value for entry CC(CN1CCN(C)CC1)OC(=O)c1ccc(Cl)cc1Cl (stereo not given)
Result: 10

Task: // lookup inhibition for `O=S(=O)(c1ccc(F)c(Cl)c1)N1CCCC1`
Result: 0.16
